study.target: T1, wildtype feline IL-31 protein (Feline_IL31_wildtype) (feline)
T1 chain: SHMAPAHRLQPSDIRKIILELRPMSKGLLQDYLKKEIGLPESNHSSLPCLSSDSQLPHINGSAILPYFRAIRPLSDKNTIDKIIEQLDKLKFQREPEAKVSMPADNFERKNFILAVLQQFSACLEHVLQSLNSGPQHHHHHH
run.description: cell-based or functional assay
// assign condition met if % Inhibition Relative to Parent (pSTAT, FCWF-4 cells) falls strictly below 30%, else condition not met (ties count as condition not met)

# count of solved cases: 3
{"binder": "A06 (antibody, V domains shown) VH: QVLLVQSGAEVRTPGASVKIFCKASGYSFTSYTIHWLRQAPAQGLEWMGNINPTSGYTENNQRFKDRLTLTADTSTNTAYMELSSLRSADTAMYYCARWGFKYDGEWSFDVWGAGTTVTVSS VL: EIQMTQSPSSLSASPGDRVTITCRAAQGISIWLSWYQQKPGNIPKVLINKASNLHIGVPSRFSGSGSGTDFTLTISSLEPEDAATYYCLQSQTYPLTFGGGTKLEIK", "assigned.category": "condition not met"}
{"binder": "A03 (antibody, V domains shown, sample ID reads A03 although it stands between A07 and A09) VH: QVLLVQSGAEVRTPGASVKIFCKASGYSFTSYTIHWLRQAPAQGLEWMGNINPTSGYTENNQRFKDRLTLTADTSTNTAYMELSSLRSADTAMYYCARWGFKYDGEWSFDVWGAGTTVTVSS VL: EIQMTQSPSSLSASPGDRVTITCRASQAISIWLSWYQQKPGNIPKVLINKASNLHIGVPSRFSGSGSGTDFTLTISSLEPEDAATYYCLQSQTYPLTFGGGTKLEIK", "assigned.category": "condition not met"}
{"binder": "A05 (antibody, V domains shown) VH: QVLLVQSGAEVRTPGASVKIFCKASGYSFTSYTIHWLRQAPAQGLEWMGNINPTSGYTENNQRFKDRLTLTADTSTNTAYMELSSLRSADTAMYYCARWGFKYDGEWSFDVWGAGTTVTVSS VL: EIQMTQSPSSLSASPGDRVTITCAASQGISIWLSWYQQKPGNIPKVLINKASNLHIGVPSRFSGSGSGTDFTLTISSLEPEDAATYYCLQSQTYPLTFGGGTKLEIK", "assigned.category": "condition met"}

### Prompt Field: below-cutoff. Rule: recorded % Inhibition Relative to Parent (pSTAT, FCWF-4 cells) strictly less than 30%. Subject: A09 (antibody, V domains shown) VH: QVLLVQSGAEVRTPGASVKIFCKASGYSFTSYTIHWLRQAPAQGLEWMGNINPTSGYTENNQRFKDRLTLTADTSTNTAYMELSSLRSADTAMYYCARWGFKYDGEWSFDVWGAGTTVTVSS VL: EIQMTQSPSSLSASPGDRVTITCRASQGASIWLSWYQQKPGNIPKVLINKASNLHIGVPSRFSGSGSGTDFTLTISSLEPEDAATYYCLQSQTYPLTFGGGTKLEIK
### Response condition met

### Prompt # TODO verify % Inhibition Relative to Parent (pSTAT, FCWF-4 cells) < 30% strictly for this binder: A27 (antibody, V domains shown) VH: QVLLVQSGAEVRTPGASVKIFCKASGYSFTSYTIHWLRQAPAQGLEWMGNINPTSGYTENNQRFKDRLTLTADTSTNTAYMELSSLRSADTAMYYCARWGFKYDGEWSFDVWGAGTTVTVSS VL: EIQMTQSPSSLSASPGDRVTITCRASQGISIWLSWYQQKPGNIPKVLINKASNLHIGVPSRFSGSGSGTDFTLTISSLEPEDAATYYCLQSQTYPATFGGGTKLEIK
### Response condition met
